System: PANC-1 cells
testDetails: cell viability assay in PANC-1 cells (compound alone, + 100 ng/ml TNFa, + 300 ng/ml TRAIL)
Assay type: cell-based
setupConditions: with 100 ng/ml TNFa; Tables 6-10; read-out: IC50 (μM) in cell viability assay in PANC-1 cells: Compound + 100 ng/ml TNFa
parameter: IC50 (µM)

[[record]]
compound = "CN[C@@H](C)C(=O)N[C@H](C(=O)N1C[C@@H](NC(=O)c2cc(C(=O)O)cc(C(=O)N[C@H]3C[C@@H](C(=O)N[C@@H]4CCCc5ccccc54)N(C(=O)[C@@H](NC(=O)[C@H](C)NC)C(C)(C)C)C3)c2)C[C@H]1C(=O)N[C@@H]1CCCc2ccccc21)C(C)(C)C [Compound 127]"
boundoperator = "="
measurement = 0.032

[[record]]
compound = "CN[C@@H](C)C(=O)N[C@@H](CCCCCC[C@H](NC(=O)[C@H](C)NC)C(=O)N1CCC[C@H]1CNC(=O)c1ccccc1)C(=O)N1CCC[C@H]1CNC(=O)c1ccccc1 [Compound 16]"
boundoperator = ">"
measurement = 1

